Molecular target: 5-HT1D receptor (Bos taurus)
Assay: Binding affinity towards 5-hydroxytryptamine 1D receptor in calf striatum using [3H]5-HT as radio-ligand.
Field 'label' (enum: Satisfied / Not satisfied). Set to Satisfied when IC50 is strictly under 400 nM; else Not satisfied.

{"smiles entry": "COc1ccc(NC(=O)N2CCN(CCCCc3c[nH]c4ccc(F)cc34)CC2)cc1N1CCN(C)CC1", "label": "Satisfied"}
{"smiles entry": "COc1ccc(NC(=O)NCCc2c[nH]c3ccc(F)cc23)cc1N1CCN(C)CC1", "label": "Satisfied"}
{"smiles entry": "COc1ccc(NC(=O)NCCN2CCC(c3c[nH]c4cc(F)ccc34)CC2)cc1OCCN(C)C", "label": "Not satisfied"}
{"smiles entry": "COc1ccc(NC(=O)N2CCC(c3c[nH]c4ccc(C(N)=O)cc34)CC2)cc1N1CCN(C)CC1", "label": "Satisfied"}
{"smiles entry": "COc1ccc(NC(=O)N2CCc3[nH]c4ccc(F)cc4c3C2)cc1N1CCN(C)CC1", "label": "Not satisfied"}
{"smiles entry": "COc1ccc(NC(=O)N2CCC(c3c[nH]c4cc(F)ccc34)CC2)cc1N1CCN(C)CC1", "label": "Satisfied"}
